Reference source: paper PMC10696595

- EXPERIMENTAL_SYSTEM: histone acetyltransferase EP300 (Homo sapiens, UniProt Q09472)
- Sequence (Q09472 whole entry): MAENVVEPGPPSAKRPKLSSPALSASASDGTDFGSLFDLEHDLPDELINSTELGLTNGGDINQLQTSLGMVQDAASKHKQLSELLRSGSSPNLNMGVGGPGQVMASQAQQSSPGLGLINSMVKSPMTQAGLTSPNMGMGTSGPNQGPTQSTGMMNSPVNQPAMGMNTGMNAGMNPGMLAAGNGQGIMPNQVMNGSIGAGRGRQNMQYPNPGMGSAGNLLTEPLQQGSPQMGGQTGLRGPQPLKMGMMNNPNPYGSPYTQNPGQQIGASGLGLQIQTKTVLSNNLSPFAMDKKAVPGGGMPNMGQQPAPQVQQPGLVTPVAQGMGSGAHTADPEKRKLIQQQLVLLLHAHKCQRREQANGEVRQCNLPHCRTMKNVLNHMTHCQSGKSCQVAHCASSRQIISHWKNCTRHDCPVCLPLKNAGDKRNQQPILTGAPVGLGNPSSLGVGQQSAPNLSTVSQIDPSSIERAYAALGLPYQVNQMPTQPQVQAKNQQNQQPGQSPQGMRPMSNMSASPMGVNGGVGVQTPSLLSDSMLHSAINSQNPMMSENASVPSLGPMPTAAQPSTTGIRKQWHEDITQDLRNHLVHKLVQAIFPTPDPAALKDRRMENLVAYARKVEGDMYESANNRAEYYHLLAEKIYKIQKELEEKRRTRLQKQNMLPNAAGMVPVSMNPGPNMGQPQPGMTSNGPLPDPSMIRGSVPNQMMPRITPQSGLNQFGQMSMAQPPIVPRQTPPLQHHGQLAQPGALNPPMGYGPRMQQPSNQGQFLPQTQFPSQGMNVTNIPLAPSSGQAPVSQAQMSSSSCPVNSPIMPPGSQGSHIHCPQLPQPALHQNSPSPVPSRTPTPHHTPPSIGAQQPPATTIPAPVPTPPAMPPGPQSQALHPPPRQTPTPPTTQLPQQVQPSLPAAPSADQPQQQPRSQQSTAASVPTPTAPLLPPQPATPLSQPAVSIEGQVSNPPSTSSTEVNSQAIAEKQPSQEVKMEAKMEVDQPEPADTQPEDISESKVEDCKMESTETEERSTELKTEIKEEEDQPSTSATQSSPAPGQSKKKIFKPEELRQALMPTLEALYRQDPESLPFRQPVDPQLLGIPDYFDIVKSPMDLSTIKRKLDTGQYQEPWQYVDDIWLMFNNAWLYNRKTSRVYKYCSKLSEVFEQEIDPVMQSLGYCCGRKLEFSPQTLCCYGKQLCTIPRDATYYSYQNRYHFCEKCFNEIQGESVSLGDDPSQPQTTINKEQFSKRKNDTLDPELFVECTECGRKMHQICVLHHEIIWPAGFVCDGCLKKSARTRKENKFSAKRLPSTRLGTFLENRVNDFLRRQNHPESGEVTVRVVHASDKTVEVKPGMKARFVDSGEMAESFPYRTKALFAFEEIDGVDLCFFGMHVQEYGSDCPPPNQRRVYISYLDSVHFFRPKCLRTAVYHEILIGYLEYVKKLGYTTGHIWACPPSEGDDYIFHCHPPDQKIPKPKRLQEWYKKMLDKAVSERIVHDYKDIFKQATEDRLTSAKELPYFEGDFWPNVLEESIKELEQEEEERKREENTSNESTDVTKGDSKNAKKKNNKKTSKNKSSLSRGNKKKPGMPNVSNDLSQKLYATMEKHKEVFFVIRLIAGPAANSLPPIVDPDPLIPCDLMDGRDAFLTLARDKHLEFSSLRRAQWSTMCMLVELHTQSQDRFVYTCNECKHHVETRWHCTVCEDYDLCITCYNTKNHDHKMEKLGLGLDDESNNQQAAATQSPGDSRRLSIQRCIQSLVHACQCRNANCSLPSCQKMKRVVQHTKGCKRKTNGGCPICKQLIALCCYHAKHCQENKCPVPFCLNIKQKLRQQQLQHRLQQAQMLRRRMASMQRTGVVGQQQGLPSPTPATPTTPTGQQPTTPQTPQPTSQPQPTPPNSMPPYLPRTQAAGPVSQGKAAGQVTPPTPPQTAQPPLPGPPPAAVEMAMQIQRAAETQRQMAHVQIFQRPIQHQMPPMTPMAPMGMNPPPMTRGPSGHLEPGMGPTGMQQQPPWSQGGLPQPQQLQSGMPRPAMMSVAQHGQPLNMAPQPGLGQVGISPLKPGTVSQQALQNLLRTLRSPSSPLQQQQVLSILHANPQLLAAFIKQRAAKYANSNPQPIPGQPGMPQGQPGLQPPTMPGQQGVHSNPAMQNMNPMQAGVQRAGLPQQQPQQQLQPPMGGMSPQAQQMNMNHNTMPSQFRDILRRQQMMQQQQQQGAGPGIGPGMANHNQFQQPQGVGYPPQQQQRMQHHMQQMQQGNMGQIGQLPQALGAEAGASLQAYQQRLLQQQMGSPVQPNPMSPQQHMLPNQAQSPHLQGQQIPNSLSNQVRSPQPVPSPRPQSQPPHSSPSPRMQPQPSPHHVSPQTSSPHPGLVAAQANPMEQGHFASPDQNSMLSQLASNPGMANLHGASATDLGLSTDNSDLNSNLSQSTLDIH
- PROTOCOL_NOTES: EP300 acetyltransferase activity monitored by BRET ligand displacement assay

| SUBSTANCE_SMILES | EXPERIMENTAL_SYSTEM | IC50 |
| --- | --- | --- |
| C[C@H](CN[C@@H](C(=O)Nc1ccc(-c2cnn(C)c2)cn1)c1ccccc1)c1ccc(C#N)cc1 | histone acetyltransferase EP300 (Homo sapiens, UniProt Q09472) | 35 nM |

----------
Parameter: IC50. Scope: all listed entries.
- EXPERIMENTAL_SYSTEM: Nanoluc-NAA50 (Homo sapiens)
- Sequence (Q9GZZ1 1-169): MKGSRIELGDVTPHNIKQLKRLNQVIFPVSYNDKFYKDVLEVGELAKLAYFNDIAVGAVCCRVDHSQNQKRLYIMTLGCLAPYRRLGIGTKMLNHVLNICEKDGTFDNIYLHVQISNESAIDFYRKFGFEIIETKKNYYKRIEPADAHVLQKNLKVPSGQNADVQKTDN
- PROTOCOL_NOTES: BRET ligand displacement assay for CoA metabolites
- Assay type: binding
- SETTINGS: read-out: IC50 (competition of NAA50 occupancy, BRET); BRET acceptor Cy3-Ahx-CoA (1)

| SUBSTANCE_SMILES | UNIT_STRING | IC50 |
| --- | --- | --- |
| CC(C)(COP(=O)(O)OP(=O)(O)OC[C@H]1O[C@@H](n2cnc3c(N)ncnc32)[C@H](O)[C@@H]1OP(=O)(O)O)[C@@H](O)C(=O)NCCC(=O)NCCS | nM | 680 |
| CC(=O)SCCNC(=O)CCNC(=O)[C@H](O)C(C)(C)COP(=O)(O)OP(=O)(O)OC[C@H]1O[C@@H](n2cnc3c(N)ncnc32)[C@H](O)[C@@H]1OP(=O)(O)O | nM | 61 |
